Sourced from patent US20250051283A1

Provide the recorded pIC50 for the entries that follow.
- measuredTarget: EV-D68 2A^pro (WT-2A^pro, strain US/KY/14-18953, expressed in E. coli BL21(DE3) from pE-SUMOstar vector) (enterovirus D68, UniProt A0A097BW19)
- Construct: E. coli-codon-optimised gene, pE-SUMOstar, His-SUMO tag (removed with SUMO protease for nontagged form), E. coli BL21(DE3), Ni-NTA; 7JRE is the C107A mutant
- experimentSummary: FRET-based enzymatic assay of EV-D68 2A^pro inhibition (FRET substrate Dabcyl-KIRIVNT/GPGFGGE-Edans)
Give bare numbers, as −log10 of the molar value.

Some compounds with known pIC50 results, for comparison:
Memo: CC(C)(C)[C@H](NC(=O)CC12CC3CC(CC(C3)C1)C2)C(=O)N1C[C@@H]2CCC[C@@H]2[C@H]1C(=O)NC1(C(=O)C(=O)NC2CC2)CCC1 [Jun11806] , reported pIC50: 5.32

Lab book: pIC50 of CC(C)(C)[C@H](NC(=O)CC12CC3CC(CC(C3)C1)C2)C(=O)N1C[C@@H]2CCC[C@@H]2[C@H]1C(=O)N[C@H](C(=O)C(=O)NC1CC1)c1ccccc1 [Jun11817] noted as 6.64

Working through the 7 compounds below one at a time, give pIC50 for each.
1. CC(C)(C)[C@H](NC(=O)CC12CC3CC(CC(C3)C1)C2)C(=O)N1C[C@@H]2CCC[C@@H]2[C@H]1C(=O)N[C@H](C(=O)C(=O)NC1CC1)C1CCCC1 [Jun11808]
2. CCC[C@H](NC(=O)[C@@H]1[C@H]2CCC[C@H]2CN1C(=O)[C@@H](NC(=O)Cc1ccccc1)C(C)(C)C)C(=O)C(=O)NC1CC1 [Jun8681]
3. CCC[C@H](NC(=O)[C@@H]1[C@H]2CCC[C@H]2CN1C(=O)[C@@H](NC(=O)C=Cc1ccccc1)C(C)(C)C)C(=O)C(=O)NC1CC1 [Jun8813]
4. CC(C)(C)[C@H](NC(=O)CC12CC3CC(CC(C3)C1)C2)C(=O)N1C[C@@H]2CCC[C@@H]2[C@H]1C(=O)NC1(C(=O)C(=O)NC2CC2)CCCCC1 [Jun11805]
5. CCCC(NC(=O)C1C2CCCC2CN1C(=O)C(NC(=O)CC12CC3CC(CC(O)(C3)C1)C2)C(C)(C)C)C(=O)C(=O)NC1CC1 (centres unmarked) [Jun922]
6. CCC[C@H](NC(=O)[C@@H]1[C@H]2CCC[C@H]2CN1C(=O)[C@@H](NC(=O)CC1CCCC1)C(C)(C)C)C(=O)C(=O)NC1CC1 [Jun971]
7. COC[C@H](NC(=O)[C@@H]1[C@H]2CCC[C@H]2CN1C(=O)[C@@H](NC(=O)CC12CC3CC(CC(C3)C1)C2)C(C)(C)C)C(=O)C(=O)NC1CC1 [Jun11672]

[reply]
[6.70, 6.60, 6.12, 6.13, 6.40, 7.00, 6.92]

# batch: return pIC50 for each of the 2 compounds below
1. CCC[C@H](NC(=O)[C@@H]1[C@H]2CCC[C@H]2CN1C(=O)[C@@H](NC(=O)CC1CCCCC1)C(C)(C)C)C(=O)C(=O)NC1CC1 [Jun8814]
2. CC(C)(C)C(NC(=O)CC12CC3CC(CC(C3)C1)C2)C(=O)N1CC2CCCC2C1C(=O)NC(C(=O)C(N)=O)C1CCCCC1 (centres unmarked) [Jun11725]

[reply]
7.05
6.72
